target_desc: human mAChR M4 (Homo sapiens)
Construct: expressed in transfected cells
Sequence (P08173 whole entry): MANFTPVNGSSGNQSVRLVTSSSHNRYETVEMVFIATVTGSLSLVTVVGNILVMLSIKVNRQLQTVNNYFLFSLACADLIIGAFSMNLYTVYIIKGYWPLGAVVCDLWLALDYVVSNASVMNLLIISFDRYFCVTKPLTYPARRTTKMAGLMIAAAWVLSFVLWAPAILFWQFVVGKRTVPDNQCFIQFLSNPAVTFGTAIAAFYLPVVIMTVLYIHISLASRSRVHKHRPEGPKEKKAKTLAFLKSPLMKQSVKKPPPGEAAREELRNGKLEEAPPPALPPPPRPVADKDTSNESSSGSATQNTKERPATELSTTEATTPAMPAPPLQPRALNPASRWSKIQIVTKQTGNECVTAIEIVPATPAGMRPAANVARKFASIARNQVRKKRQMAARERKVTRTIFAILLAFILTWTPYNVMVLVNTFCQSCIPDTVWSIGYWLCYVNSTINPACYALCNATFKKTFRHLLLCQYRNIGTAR
test_summary: mAChR M4 cell-based functional assay (calcium mobilization, CHO-K1 hM4-Gqi5 cells)
experimental_conditions: positive allosteric modulator activity, increase in the EC20 acetylcholine response, CHO-K1 hM4-Gqi5 cells; read-out: Human M4 EC50
pEC50: −log10 of the molar value.
parameter_measured: pEC50

Record excerpt, results attached:
Could you please provide reported pEC50 for Cc1cc(C(=O)N2CC(C(F)F)C2)nnc1N1CCc2ncc(C(F)(F)F)cc2C1 ? Thanks!
6.77

Hello, please tell me recorded pEC50 for this one: O=C(NCc1cncs1)c1ccc(N2CCc3ncc(C(F)(F)F)cc3C2)nn1
6.07

Kindly indicate its recorded pEC50. Item: Cc1cc(C(=O)N2CCC2)nnc1N1CCc2ncc(N3CCCn4nccc43)cc2C1
7.34

(P) Cc1cc(C(=O)N2CC(N(C)C)C2)nnc1N1CCc2ncc(N3CCCn4nccc43)cc2C1
(Q) Cc1cc(C(=O)N2CC(Cl)C2)nnc1N1CCc2ncc(N3CCO[C@H](C)C3)cc2C1
(R) Cc1cc(C(=O)N2CCN(C)CC2)nnc1N1CCc2ncc(N3CCCn4nccc43)cc2C1
(S) Cc1c(C#N)nnc(N2CCc3ncc(-c4cccnc4F)cc3C2)c1C
(T) Cc1cc2n(n1)CCCN2c1cnc2c(c1)CN(c1nnc(C#N)c(C)c1C)CC2
Reorder the items by pEC50, least to greatest. Reply format: the labels, ordered as requested.
R, S, T, Q, P

---

target_desc: human mAChR M4 (Homo sapiens)
Construct: expressed in transfected cells
test_summary: mAChR M4 cell-based functional assay (calcium mobilization, CHO-K1 hM4-Gqi5 cells)
experimental_conditions: positive allosteric modulator activity, increase in the EC20 acetylcholine response, CHO-K1 hM4-Gqi5 cells; read-out: Human M4 EC50
parameter_measured: EC50 (µM)

Consider the reported EC50 for these molecules:
Report EC50 under test system human mAChR M4 (Homo sapiens) for Cc1cc(C(=O)NCc2ccncc2)cnc1N1CCc2ncc(Nc3ccnn3C)cc2C1 [Example 473] .
0.324

Please indicate recorded EC50 of Cc1ccc2c(n1)CCN(c1nnc(C#N)cc1C)C2 [Example 605] measured with human mAChR M4 (Homo sapiens).
1.44

Tell me EC50 of [2H]C1([2H])Cc2ncc(Nc3ccncc3C)cc2C([2H])([2H])N1c1nnc(C#N)cc1C [Example 607] when tested on human mAChR M4 (Homo sapiens).
0.906

Supply EC50 measured with human mAChR M4 (Homo sapiens) for Cc1ccc(-c2cnc3c(c2)CN(c2ncc(C#N)cc2C)CC3)cn1 [compound 187] .
0.138

# lookup: human mAChR M4 (Homo sapiens) EC50, key = Cc1cc(C(=O)NCc2ccc(-n3cccn3)cc2)cnc1N1CCc2ncccc2C1 [compound 67]
1.94

# return EC50 of Cc1c(C#N)nnc(N2CCc3ncc(-c4ccc(N5CCN(C6CC6)CC5)nc4)cc3C2)c1C [Example 335] (system: human mAChR M4 (Homo sapiens))
0.386

Name the recorded EC50 of Cc1cnccc1CNC(=O)c1cc(C)c(N2CCc3ncc(N4CCCn5nccc54)cc3C2)nn1 [Example 491] , assay system human mAChR M4 (Homo sapiens).
0.015

Name the recorded EC50 of Cc1c(Cl)nc(C2CC2)nc1N1CCc2ncc(Nc3ccccc3F)cc2C1 [compound 90] , assay system human mAChR M4 (Homo sapiens).
7.6

(P) Cc1cc(C#N)nnc1N1CCc2ncc(-c3cnn(C4CC4)c3)cc2C1 [Example 361]
(Q) Cc1cnc2c(c1)CN(c1nnc(C(=O)Nc3ccncc3)c(C)c1C)CC2 [Example 469]
(R) Cc1cc(C#N)cnc1N1CCc2ncc(-c3cnn(CC4CC4)c3)cc2C1 [compound 102]
Rank descending by EC50. Answer by listing the labels in the order asked for.
P, R, Q
